Where do the numbers come from? From the supplement of paper PMC9170038.

Test system: K4 kissing-loop RNA reporter
protocol description: apparent KD of K4 kissing-loop reporter; higher = weaker reporter binding
condition label: Eterna round: R107; input ligand: theophylline 20 uM
assay endpoint: apparent KD of K4 kissing-loop reporter (nM)
Please give a number only; it is taken to be in nM.

Prompt: Quick one: apparent KD of K4 kissing-loop reporter for CUCUAACUGAGAAGGAGCGCGAUAUAAACACUCGCACAGUGAUGUUGUGUGUCAAGGGUAUCGCAGGUAGGUCGCUCAGAUACCU [Arg B SS t15] ?
Completion: 273

Prompt: Looking for the measured apparent KD of K4 kissing-loop reporter of AGAUUCGACACGGCCGCCACUUGUGGUGGAUUAUCCUAUGUAAGACAUGAGUGAUGUUCAUGUACAAGGACCGGGUGUUGAGUCU [KL-XTryp-B4 #analogue] , can you help?
Completion: 193

Prompt: Fill in: apparent KD of K4 kissing-loop reporter of AGUAAUGAGUGAUGUUCAAUUAGUAAGGAUACCAGUAAUUCAAAAUGCCCUUGGCAGCUUAACGCUACCAAUAGAUUAAUAAUGG [First try - Theophylline A] is ___
Completion: 182

* * *

Tested on: MS2 coat protein
protocol description: apparent KD of MS2 coat protein; designed switch direction (-1 OFF switch, 1 ON switch): -1; higher = weaker reporter binding
condition label: Eterna round: R95; input ligand: microRNA oligo, concentration not stated
Note to self: values exactly at 90 nM are label 1. So apparent KD of MS2 coat protein at or above 90 nM is label 1, below is label 0.

Prompt: Kindly determine if apparent KD of MS2 coat protein recorded for AGAAGUAGUAACCGAUCCUACAUGAGGAUCACCCAUGUAGCUAGACGUGCACGCGAUGCUCGUCAGACUACCAGAUG [salish99_TOv1_r3_027] (puzzle: Sensor v3, turn-off variant 1) is above or exactly 90 nM.
Completion: label 1

Prompt: Confirm if apparent KD of MS2 coat protein reported for the sequence UCAAGUAUGUAGGAUAUGAUGUGAUUUUACAUAUCAGAAGGACGUACAUGAGGAUCACCCAUGUAACUUGCAUG [Exclusion 6 - B - 12:a] (puzzle: Exclusion 6) is 90 nM or above.
Completion: label 0

Prompt: Hello, I need to know if UAGCUUCCGGUCAGGAUAUACGCUGGCGAAUAGCAGUAGAAGGGACAUGAGGAUCACCCAUGUGGGUUCAAAGA [Zabetima] (puzzle: Brourd's mod of Exclusion 4) has measured apparent KD of MS2 coat protein not below 90 nM. Thanks!
Completion: label 0

Prompt: Decide: apparent KD of MS2 coat protein of AGUAACAGAGGAUAUACUGUUUUAUGUGUUUGUUAUUUUAAACAUGAGGAUCACCCAUGUAGAAGGCUGAAUAA [JMF 83] (puzzle: Exclusion 2) >= 90 nM?
Completion: label 0

Prompt: Threshold query (apparent KD of MS2 coat protein >= 90 nM) on UUAAAUAGUGUGAGGAUAUGCUGGUCCUUGGAUCAGCAGAAGGCACAUGAGGAUCACCCAUGUAGUUAAUUUUA [Mat - Exclusion 4 - JL Mod - D22] (puzzle: Brourd's mod of Exclusion 4)
Completion: label 0

Prompt: Could you please find out whether UUUUAACAUGAGGAUCACCCAUGUGAGGAUAUCGAAAUUUAUAUUAAUAUUAUUUUAUCGAGAAGGCACAUUUU [JMF 48] (puzzle: Exclusion 1) has apparent KD of MS2 coat protein that meets 90 nM or exceeds it?
Completion: label 1

Prompt: Test whether the sequence GACCGGACGUGGUCAGGUAACAUGAGGAUCACCCAUGUAGGUCUAAGAACAAGCCUUUUGUACGCUCGUCUUAUAUU [JR_SV3TOV1_Sub060] (puzzle: Sensor v3, turn-off variant 1) records apparent KD of MS2 coat protein of 90 nM or higher.
Completion: label 0

Prompt: Is apparent KD of MS2 coat protein for GAUGUUCUGGUCAGGAUAUGCAUCCGUCGGCCGGAGCAGAAGGGACAUGAGGAUCACCCAUGUGCGGGUACAAA [Onvegeor] (puzzle: Brourd's mod of Exclusion 4) at or above 90 nM?
Completion: label 0

Prompt: Entry GCAUGGGCCGUCAGGAUAUAGGCGCCGUGAAGGUAUUAGAAGGGACAUGAGGAUCACCCAUGUAUGAGAAAAGA [Edtioresor] (puzzle: Brourd's mod of Exclusion 4) : is its apparent KD of MS2 coat protein no less than 90 nM?
Completion: label 0

Prompt: Dear colleague, could you confirm whether GAUCAGCUUGUGAGGAUAUCCGGGCAUAAAGGCUAGGAGAAGGUACAUGAGGAUCACCCAUGUAGAGUCCUGGG [Bisoraxe] (puzzle: Brourd's mod of Exclusion 4) has apparent KD of MS2 coat protein at or above 90 nM?
Completion: label 0

Prompt: Form field: apparent KD of MS2 coat protein at least 90 nM? Entry: GAUUAUGCGAGCUUUAGGGACAUGAGGAUCACCCAUGUUCGUCUUAUUAGUCUAGGUACACUGACAUACCUAAAUCU [JMF 67] (puzzle: Sensor v3, turn-off variant 1)
Completion: label 0

Prompt: For this sequence, is measured apparent KD of MS2 coat protein 90 nM or higher? ACGUAACGAGCUUGGUCCAACAUGAGGAUCACCCAUGUGCUCGUCUUAUAACGUACUGUCACGUUAGUGAUAGUGCG [Sensor v3, turn-off variant 1 (MOD of Eli's v1-13 v.6)] (puzzle: Sensor v3, turn-off variant 1)
Completion: label 1

Prompt: Would you say ACUGCCACAGGAUAUACGAAACUCUUGGGUUCCGCCGUGUGACAUGAGGAUCACCCAUGUAGAAGGGUGGCUUA [Atbiinza] (puzzle: Exclusion 2) shows apparent KD of MS2 coat protein at minimum 90 nM?
Completion: label 1

Prompt: Check the entry CCUUAACAUGAGGAUCACCCAUGUGAGGAUAUGAUGCAGCAGUGGUCUACGCUGUGCAUCAGAAGGUACAUGGU (puzzle: Exclusion 1) : does apparent KD of MS2 coat protein equal or exceed 90 nM?
Completion: label 0

Prompt: Say whether UUAUUACAAGCAAGAUCCUACAUGAGGAUCACCCAUGUGCUCGUCUUGUAAGGUACAGUGACGAAAGUCACAGUACC [Sensor 3, v1 - 000] (puzzle: Sensor v3, turn-off variant 1) shows apparent KD of MS2 coat protein of 90 nM or more.
Completion: label 1

Prompt: Check this sequence for apparent KD of MS2 coat protein at or above 90 nM: GGUUGACAUGAGGAUCACCCAUGUGAGGAUAUGCGAGAGAAAAAAGUGAGGAAGUAAUGCAGAAGGCGCUGUCG [salish99-ex1_r3_017] (puzzle: Exclusion 1)
Completion: label 0

Prompt: Could you tell me if the measured apparent KD of MS2 coat protein of AGUACUAGCACGAAAGUGUUAGUACAAUAAGCUUGUGAAACAUGAGGAUCACCCAUGUCCUCAUAAGCUCGUCUUAU [salish99_TOv2_r3_020] (puzzle: Sensor v3, turn-off variant 2) reaches 90 nM or more?
Completion: label 1

Prompt: Given CUUUUGUGAGGAUAUUAGUAGUAAAUAAAUAAAAUUACUACUGAGAAGGCACAUGAGGAUCACCCAUGUUCUUC [salish99_ex4_r3_066] (puzzle: Exclusion 4) , state whether its apparent KD of MS2 coat protein is at least 90 nM.
Completion: label 0

Prompt: Hello, I need to know if GUGUAGUGAGGAUAUACAUGAGGAUCACCCAUGUGAAUAAGAUAGAAUAAGAUAAAGUGUAGAAGGUAUAGUGU [Excluse me!!! 17 - Jieux - Exclusion 3] (puzzle: Exclusion 3) has measured apparent KD of MS2 coat protein not below 90 nM. Thanks!
Completion: label 0

Prompt: Check the entry GUGAGGUAAGGAUAUAGUAGUGAAGGUAAGAUAUGAGAAUGCUAGAAGGUACAUGAGGAUCACCCAUGUUCGGG [JR_Exclu4_Sub089] (puzzle: Exclusion 4) : does apparent KD of MS2 coat protein equal or exceed 90 nM?
Completion: label 1

* * *

For each entry below, report its apparent KD of K4 kissing-loop reporter value.
Tested on: K4 kissing-loop RNA reporter;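 note: bound reporter read as fluorescence of individual clusters on recovered sequencing chips by microscopy, with normalized cluster intensities fitted with a binding model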
protocol description: apparent KD of K4 kissing-loop reporter; higher = weaker reporter binding
condition label: Eterna round: R107; input ligand: FMN 200 uM
Please make sure the unit comes right after the number.

Prompt: Please give the measured apparent KD of K4 kissing-loop reporter for this sequence: UUUGUAUAGGGAAGGAGCGUGAAUGAGAAAGAAUAUAGUGAUGUUAUAUAGAAGAAAGAAUCACAGGUAGGUCGCCCGGAGGAGG [SSArgB.G]
Completion: 484 nM

Prompt: Suppose we examine the sequence AAGACUGCAGGAAGGAGCGGCGGACGGAGUGAUGUUCCGGCUAGUGAUGUUAGCAAACACCGCCAGGUAGGUCGCCUGUUGCUCU [Same State Arginine B GF7] ; what apparent KD of K4 kissing-loop reporter value has been reported?
Completion: 113 nM

Prompt: If you can, please state the reported apparent KD of K4 kissing-loop reporter value of AGAACUGUCUGGGAUACCAGCCGAGGAGUGAUGUUCCGGCUCGACGAAACGUCGAGCCACGGCCCUUGGCAGCUCAGACAGUUCA [#21 K4 Theophylline B Same State] .
Completion: 674 nM

Prompt: # apparent KD of K4 kissing-loop reporter lookup, item CGCGUAUCGGCAGGAUAUGGAGUUGAGUGAUGUUCAGCAAUGGGUCAUCAUCUUUAUGACAAUCCACCAGAAGGGCCGAUACGCG
Completion: 622 nM

Prompt: Returns the measured apparent KD of K4 kissing-loop reporter for the input sequence. Input: AGAGUGAUGUUUUUUUGAAGUGAGUAAAGUCGAGGACCGGUACGGCCGCCACUCGAGUGAUGUUAGUGAUGUUGAUGUAGUGAUG [xxzmullin]
Completion: 110 nM

Prompt: Given UCGGUAUAGUGAUGUUAUAUAGAGAGUGAUACCAGUUUAGAGAGAAACCCUUGGCAGCAUAGAAGAGUAUCAUUGGAGGAGGAGG [#20 K4 Theophylline A Exclusion] , state its recorded apparent KD of K4 kissing-loop reporter.
Completion: 455 nM

Prompt: Fill blank: measured apparent KD of K4 kissing-loop reporter of the sequence UUUUAUUAAUACUUCUAGUGAUGUUAGAUACGAGGACCGGUACGGCCGCCACUCGCUUAUUGGUUUAUAUAUUUUAUAUUCUUUA [JR_SSTryptoA_Sub014] is ____.
Completion: 327 nM

Prompt: Suppose we examine the sequence UGUGUUUACCUGACUCAGUGAUGUUGAGAAGGAGCGUGCUAAAGCACAGGUAGGUCGCUCAACCUAAAUUCAGGUGAGCACUAAA ; what apparent KD of K4 kissing-loop reporter value has been reported?
Completion: 350 nM

Prompt: Can you look up the measured apparent KD of K4 kissing-loop reporter of AAAUUUUAAAGUGAUACCAGACAUCUCAAUUACAUUAAUAAAGCUAAGUGAUGUUUAGCAGUCCCUUGGCAGCACAAUUUAAUUA [JR_SSTheophyB_Sub011] for me?
Completion: 272 nM

Prompt: Reported apparent KD of K4 kissing-loop reporter, sequence GCAUCCAUGGCAGGAUAUAGGUUCGUGGAGUGAUGUUCCAUAGCCCGAGUGAUGUUCGUUAUCCACCUAGAAGGGCCAUGGAUGC [whbob_Ex_FMNB__2th212] : ____
Completion: 270 nM

Prompt: For the sequence shown here, GAUAUAGUGAUGUUAUAUACUGAUAGACAACGAGGACCGGUACGGCCGCCACUCGAGAGGGUGAAAAUAAUGAUAAAAUAAUAAU [ExyTryA#1] , give the reported apparent KD of K4 kissing-loop reporter.
Completion: 343 nM

Prompt: Given the sequence UGUGAGCUGUCGACAAAAGUCGACUAAAACGAGGAUAUGACGAAAGUCAGAAGGCGUCAAUAAUGGAGUGAUGUUCCUGCUCACU [FmnA 9 #SwitchBubble #K4Late] , what is its reported apparent KD of K4 kissing-loop reporter?
Completion: 256 nM
